Origin of values: patent US20260258115A1

Item-by-item account of pKd
molecular target: RSV postfusion F (postF), F ΔFP (Respiratory Syncytial Virus, UniProt P03420 26-513); assay: BLI, IgG on anti-human IgG sensor, 100 nM antigen, 1:1 fit
pKd: −log10 of the molar value.

binder | pKd
ADI-41547 (antibody, V domains shown, also called Ab 819; Antibody Number 819) VH: QVQLVQSGAEVKKPGSSVKVSCKASGGSFSSNTINWVRQAPGQGLEWMGGIIPVFETPNYAQKFQGRVSFTADESTRTAYMELSSLRSEDTAVYFCARQGMSYYDTNGNYYVGWFDTWGQGTLVTVSS VL: EIVLTQSPGTLSLSPGERATLSCRASQSLNNNYLAWYQRKPGQAPRLLIYGAGAFSRATGIPDRFSGSGSGTDFTLTISRLEPEDFALYYCQQYGSSPLTFGQGTRLEIK | 8.97
ADI-41474 (antibody, V domains shown, also called Ab 757; Antibody Number 757) VH: QVQLVQSGAEVKRPGASVKVSCKISGYTFTSHYIHWLRQAPGQGLEWMGWINPNTGDTKYEQKFQGRVTMTRDTSLSTAYMELRRLRSDDTAVYYCARDSFYAANGYYFVWFDPWGQGALVTVSS VL: DIQMTQSPTSLSASVGDRVTITCRASQSISSYLNWYQQKPGKAPRFLIYAASSLQSGVPSRFRGSGSGTDFTLTISSLQPEDFATYYCQQSYSSPYTFGQGTKVEIK | 7.46
ADI-41541 (antibody, V domains shown, also called Ab 813; Antibody Number 813) VH: QITLKESGPTLVKPTQTLTLTCTFSGFSLSSSGVGVGWIRQPPGKALEWLALIYWDDDKRYSPSLKSRLTITKDTSKNQVVLTMTNMDPVDTATYYCAHRGPYYYDMSGYYYEAFDIWGQGTTVTVSS VL: SYELMQPPSVSVAPGQTARITCGGNNIGSKGVHWYQQKPGQAPVLVVYDDNDRPSGIPERFSGSNSGNTATLTISRVEAGDEADYYCQVWDSSSDHHYVFGTGTKVTVL | 9.11
ADI-41488 (antibody, V domains shown, also called Ab 769; Antibody Number 769) VH: EVQLVESGPGLVKPSETLSLTCTVSGGSINSDYWNWIRQTPGKGLEWIGYIFYSGNTNYNPSLKSRVTISIDTSKKKFSLQVTSVTAADTAVYYCARMGTLKFDFDNWGQGTLVTVSS VL: QSALTQPRSVSGSPGQSVTIPCTGTSSDVGAYKYVSWYQQHPGKAPKLIIYDVTKRPSGVPNRFSGSKSGNTASLTISGLQAEDEADYYCCSYAGTHTYWVFGGGTKVTVL | 9.22
ADI-41497 (antibody, V domains shown) VH: QVQLVESGGGVVQPGRSLRLSCAASGFTFSNHAMHWVRQAPGKGLEWLSFISYDGGVNFYRDSVKGRFTISRDNSKNTLYLQMSSLRPEDTAVYYCARDRVGRVVGASYYLDYWGRGALVTVSS VL: QSVVTQPPSVSVAPGQTASITCGGKHIGSKSVHWYQQKPGQSPVLVVHDDSDRPSGILERFSGSNSGNTATLTINRVEAGDEADYYCQVWDNASDHPYVFGPGTKVTVL | 9.57
